protocol-notes: Absorptive and emissive wavelength maxima and fluorescence of the compounds of Examples C to I
Assay type: physicochemical
conditions: measured in methanol
Listing of recorded Maximum absorptive wavelength by entry.

molecule	unit-string	Maximum absorptive wavelength
O=C(O)Cc1ccc2c(c1)N1C(=Cc3oc4ccc(CC(=O)O)cc4[n+]3[B-]1(F)F)O2	nm	362
CC(=O)C1=C2Sc3ccccc3N2[B-](F)(F)[n+]2c1sc1ccccc12	nm	416
F[B-]1(F)N2C(=Cc3sc4ccccc4[n+]31)Oc1ccccc12	nm	388
F[B-]1(F)N2C(=Cc3ccc4ccccc4[n+]31)Sc1ccccc12	nm	480
F[B-]1(F)N2C=CC=CC2=Cc2sc3ccccc3[n+]21	nm	430
F[B-]1(F)N2C(=Cc3ccc4ccccc4[n+]31)C=Cc1ccccc12 [Example H, Bis-Quinolinemethene Borondifluoride]	nm	512
N#CC1=C2C=CC=CN2[B-](F)(F)[n+]2ccccc21	nm	432

* * *

protocol-notes: Absorptive and emissive wavelength maxima and fluorescence of the compounds of Examples C to I
Assay type: physicochemical
conditions: qualitative; methanol where stated
assay-metric: Fluorescence (in words)

structure-as-smiles	assay-metric	measured-result
O=C(O)Cc1ccc2c(c1)N1C(=Cc3oc4ccc(CC(=O)O)cc4[n+]3[B-]1(F)F)O2	Fluorescence (in words)	highly fluorescent
F[B-]1(F)N2C(=Cc3sc4ccccc4[n+]31)Oc1ccccc12	Fluorescence (in words)	highly fluorescent
